procedure-text: Pharmacokinetics in patients after a single dose
Type: in vivo, human
run-conditions: human, serum, oral; single dose, 80 mg, mean ± SD
quantity-measured: Tmax (h)
Express the result in h but write the number alone.

What value of Tmax has been recorded for this entry: COc1ncc(-c2nc(N3CCOCC3)nc3c(CN4CCC(C(C)(C)O)CC4)cc(F)cc23)cc1NS(C)(=O)=O [YY-20394]
2.7

* * *

procedure-text: Pharmacokinetics in patients after a single dose
Type: in vivo, human
run-conditions: human, serum, oral; single dose, 80 mg, mean ± SD
quantity-measured: AUC(0-inf)
The reply should read as a number followed by its unit.

What value of AUC(0-inf) has been recorded for this entry: COc1ncc(-c2nc(N3CCOCC3)nc3c(CN4CCC(C(C)(C)O)CC4)cc(F)cc23)cc1NS(C)(=O)=O [YY-20394]
6880 ng·h/mL

* * *

procedure-text: Pharmacokinetics in patients after multiple administrations
Type: in vivo, human
run-conditions: human, serum, oral, 80 mg, mean ± SD
quantity-measured: Tmax (h)
Express the result in h but write the number alone.

What value of Tmax has been recorded for this entry: COc1ncc(-c2nc(N3CCOCC3)nc3c(CN4CCC(C(C)(C)O)CC4)cc(F)cc23)cc1NS(C)(=O)=O
2.4

* * *

procedure-text: Pharmacokinetics in patients after a single dose
Format: in vivo, human
run-conditions: human, serum, oral; single dose, 40 mg, mean ± SD; read-out: MRT0→t
quantity-measured: MRT last (h)
Express the result in h but write the number alone.

What value of MRT last has been recorded for this entry: COc1ncc(-c2nc(N3CCOCC3)nc3c(CN4CCC(C(C)(C)O)CC4)cc(F)cc23)cc1NS(C)(=O)=O [YY-20394]
18

* * *

procedure-text: Pharmacokinetics in patients after multiple administrations
Format: in vivo, human
run-conditions: human, serum, oral, 20 mg, mean, read-out: MRT0→t
quantity-measured: MRT last
The reply should read as a number followed by its unit.

What value of MRT last has been recorded for this entry: COc1ncc(-c2nc(N3CCOCC3)nc3c(CN4CCC(C(C)(C)O)CC4)cc(F)cc23)cc1NS(C)(=O)=O [YY-20394]
65.7 h
